Test system: A. baumannii ATCC 19606
Experiment: Broth microdilution MIC in CAMHB
Format: cell-based
Details: Acinetobacter baumannii, ATCC19606; MHB; read-out: Minimum Inhibitory Concentration, A. baumannii ATCC 19606
MEASURED_ATTRIBUTE: MIC

Give MIC for NCCCN1CCN(C(=O)N[C@@H](C(=O)N[C@H]2Cc3cccc(C(=O)O)c3OB2O)c2ccc(O)c(F)c2F)C(=O)C1=O (single isomer, unassigned) tested on A. baumannii ATCC 19606.
> 128 µg/mL

Give MIC for C[C@H]1CN(CCF)C(=O)C(=O)N1C(=O)N[C@@H](C(=O)N[C@H]1Cc2cccc(C(=O)O)c2OB1O)c1ccc(O)c(F)c1F tested on A. baumannii ATCC 19606.
> 128 µg/mL

Give MIC for CCN1CCN(C(=O)NC(C(=O)N[C@H]2Cc3cccc(C(=O)O)c3OB2O)c2ccc(N)c(F)c2)C(=O)C1=O (stereo partly drawn) tested on A. baumannii ATCC 19606.
> 128 µg/mL

Give MIC for CCN1CCN(C(=O)NC(C(=O)N[C@H]2Cc3cccc(C(=O)O)c3OB2O)c2cccc(NC(=O)c3ccc(O)c(O)c3Cl)c2)C(=O)C1=O (stereo partly drawn) tested on A. baumannii ATCC 19606.
0.5 to 1 µg/mL

Give MIC for CCN1CCN(C(=O)NC(C(=O)N[C@H]2Cc3cccc(C(=O)O)c3OB2O)c2cc(Cl)c(O)c(Cl)c2)C(=O)C1=O (stereo partly drawn) tested on A. baumannii ATCC 19606.
> 128 µg/mL

Give MIC for CCN1CCN(C(=O)NC(C(=O)N[C@H]2Cc3cccc(C(=O)O)c3OB2O)c2ccc(C(=O)O)c(F)c2)C(=O)C1=O (stereo partly drawn) tested on A. baumannii ATCC 19606.
> 128 µg/mL

Give MIC for NS(=O)(=O)Nc1cccc([C@@H](NC(=O)N2CCN(CC(F)(F)F)C(=O)C2=O)C(=O)N[C@H]2Cc3cccc(C(=O)O)c3OB2O)c1 (single isomer, unassigned) tested on A. baumannii ATCC 19606.
> 128 µg/mL

Give MIC for NCCCN1CCN(C(=O)N[C@H](C(=O)N[C@H]2Cc3cccc(C(=O)O)c3OB2O)c2ccc(O)c(F)c2F)C(=O)C1=O (single isomer, unassigned) tested on A. baumannii ATCC 19606.
> 128 µg/mL

Give MIC for NCCN1CCN(C(=O)N[C@@H](C(=O)N[C@H]2Cc3cccc(C(=O)O)c3OB2O)c2cc(F)c(O)c(F)c2F)C(=O)C1=O (single isomer, unassigned) tested on A. baumannii ATCC 19606.
> 128 µg/mL

Give MIC for NCCN1CCN(C(=O)N[C@@H](C(=O)N[C@H]2Cc3cccc(C(=O)O)c3OB2O)c2ccc(O)cc2F)C(=O)C1=O (single isomer, unassigned) tested on A. baumannii ATCC 19606.
> 128 µg/mL

Give MIC for CCN1CCN(C(=O)NC(C(=O)N[C@H]2Cc3cccc(C(=O)O)c3OB2O)c2c(F)c(F)c(O)c(F)c2F)C(=O)C1=O (stereo partly drawn) tested on A. baumannii ATCC 19606.
32 to 64 µg/mL

Give MIC for NCCCN1CCN(C(=O)NC(C(=O)N[C@H]2Cc3ccc(F)c(C(=O)O)c3OB2O)c2c(F)cc(O)cc2F)C(=O)C1=O (stereo partly drawn) tested on A. baumannii ATCC 19606.
> 128 µg/mL

Data provenance: patent US20230114728A1
